Test: In vitro cytotoxicity, MTT cell viability assay in HepG2 cells
Format: cell-based
Conditions: human, Cytotoxicity CC50
Description: To evaluate antiviral selectivity, the cytotoxic activity of each compound was determined using a standard cell viability assay performed on the parental HepG2 cell line. Cell viability was determined by measuring the conversion of 3-(4,5-dimethylthiazol-2-yl)-2,5-diphenyltetrazolium bromide (MTT) to the insoluble formazan salt crystal that occurs in live cells. […] All absorbance values were converted to a percentage of the signal obtained from the vehicle treated controls. […]
I'd be grateful if you could share measured CC50 at 7 days for these entries.

Look up CC50 at 7 days for this molecule: CC(C)(CCO)NC(=O)C(F)(F)c1cc(C(=O)Nc2ccc(F)c(F)c2)ccc1F
5 to 30 µM

Look up CC50 at 7 days for this molecule: Cc1cc(NC(=O)c2ccc(C(F)(F)C(=O)N3CCC(O)CC3)n2C)ccc1F
> 30 µM

Look up CC50 at 7 days for this molecule: Cc1cc(NC(=O)c2ccc(F)c(C(F)(F)C(=O)N[C@@H]3CCOC3=O)c2)ccc1F
> 30 µM

Look up CC50 at 7 days for this molecule: Cc1cc(NC(=O)c2ccc(F)c(C(F)(F)C(=O)N3[C@@H]4COC[C@H]3CC(=O)C4)c2)ccc1F
5 to 30 µM

Look up CC50 at 7 days for this molecule: Cc1cc(NC(=O)c2c(C)c(C(F)(F)C(=O)NC(C)(C)C)n(C)c2C)ccc1F
> 30 µM
